biological target: hThumb WT (hTERT thumb/CTE domain) (human, UniProt O14746 943-1132); assay: fluorescence polarization
Sequence (O14746 943-1132): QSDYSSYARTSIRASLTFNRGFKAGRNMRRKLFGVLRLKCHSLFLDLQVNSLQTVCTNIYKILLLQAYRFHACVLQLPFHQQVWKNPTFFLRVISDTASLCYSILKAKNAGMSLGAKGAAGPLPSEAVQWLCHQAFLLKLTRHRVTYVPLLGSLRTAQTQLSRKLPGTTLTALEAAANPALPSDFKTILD
measure_name: Kd

// query Kd value for entry hTER CR4/5 (structured_RNA) RNA: CCCGCCUGGAGGCCGCGGUCCGCCGCGAAGAGUUGGGCUCUGUCAGCCGCGGG
~400 nM
